- Tested on: DU-145 prostate
- experiment_notes: NCI tumour cell line growth inhibition, 48 h
experimental_endpoint: TGI (µM)
Record the value in µM, omitting the unit from your answer.

>>> reading("CCCCCc1cc(/C=C2/N=C(c3ccc[nH]3)C=C2OC)[nH]c1C")
1.48

Read the next record carefully.
q: What does the record list as TGI for `C[C@@]12CC[C@@H](O)C[C@@H]1CC[C@H]1[C@H]2CC[C@@]2(C)[C@H](c3ccc(=O)oc3)CC[C@@]12O` ?
a: 0.0168

* * *

- Test system: OVCAR-4 ovarian
- experiment_notes: NCI tumour cell line growth inhibition, 48 h
experimental_endpoint: TGI

Worked examples, 8 compounds total:
>>> reading("OC1(C(Sc2ccccc2)Sc2ccccc2)CCCCCC1")
"> 100 µM"
>>> reading("C/C=C\\C1OC1(C)c1cc(=O)c2c(C)cc3c(c2o1)C(=O)c1c(O)c(C2CC(C)(N(C)C)C(OC(C)=O)C(C)O2)cc(C2CC(N(C)C)C(O)C(C)O2)c1C3=O (stereo unspecified)")
"0.00888 µM"
>>> reading("CN(C)CC1(Cc2ccccc2)CC/C(=C\\c2ccccc2)C1=O (stereo unspecified)")
"> 100 µM"
>>> reading("O=C(Nc1ccccc1)OCCN=c1c2ccccc2ccc2ccccc12")
"> 100 µM"
>>> reading("COc1cc(/C=C2\\CCC/C(=C\\c3cc(CN4CCCC4)c(O)c(OC)c3)C2=O)cc(CN2CCCC2)c1O")
"> 100 µM"
>>> reading("COC1(OC)CCN(Cc2ccccc2)C1=O")
"30.6 µM"
>>> reading("COC(=O)C1C(C(=O)O)C2(c3ccccc3)C(=O)C1(c1ccccc1)C(c1ccc(OC)cc1)=C2c1ccc(OC)cc1 (stereo unspecified)")
"55.2 µM"
>>> reading("O=C(O)C1=Cc2cccc3cccc(c23)C1=O")
"> 100 µM"

q: Fill in the recorded TGI for this compound, with OVCAR-4 ovarian as test system: `Cc1ccc(NC(=S)NNC(=S)Nc2ccc(C)cc2)cc1`
a: > 100 µM

q: Next compound up: `Cc1cc(NS(=O)(=O)c2ccc(NO)cc2)no1`
a: > 100 µM

q: # iterate: `Nc1ccc(Oc2ccc(C34CC5C6CC7(c8ccc(Oc9ccc(N)cc9)cc8)CC5C(C3)C(C7)C6C4)cc2)cc1`
a: > 100 µM

q: Next entry: `COc1ccc2nc3cccc([N+](=O)[O-])c3c(NCCC(=O)O)c2c1`
a: > 10 µM

q: Please answer likewise for `COc1ccc(OC(=O)N2C/C(=C\c3ccccc3)C(=O)/C(=C/c3ccccc3)C2)cc1`
a: 23.5 µM

q: Now give it for `COc1ccc2nc3cc([N+](=O)[O-])ccc3c(NCCO)c2c1` too.
a: 3.99 µM

q: For `COc1ccccc1CNCCCN1C(=O)c2ccc3c4c(ccc(c24)C1=O)C(=O)N(CCCNCCCCNCCCN)C3=O` then?
a: 0.319 µM

q: Follow-up entry: `Cn1c2c(c3ccccc31)CCN1C[C@@H]3CCCC[C@H]3C[C@@H]21`
a: > 100 µM

q: Same question, `Cc1[nH]c(=O)n2c(C)nnc2c1C(=O)O` this time
a: > 100 µM

* * *

- Test system: SNB-75 CNS
- experiment_notes: NCI tumour cell line growth inhibition, 48 h
Reported values of TGI for individual entries
Write the number in µM without appending the unit.

See these solved cases before continuing.
>>> reading("O=C(c1ccccc1)c1ccc(N2C(=O)/C(=C/c3ccccc3S)N=C2c2ccccc2)c(N2C(=O)/C(=C/c3ccccc3S)N=C2c2ccccc2)c1")
65.8
>>> reading("Cc1cc(O)ccc1C1(c2ccc(O)cc2C)OC(=O)c2ccccc21")
29.5
>>> reading("Clc1nc(Cl)c2ncn(-c3ccccc3)c2n1")
13.9

Next compound, please.
q: // TGI lookup, key: COc1ccc2c(c1)OCC1c3cc(OC)c4ccccc4c3OC21 (centres undefined)
a: 47.9

Ref: PubChem BioAssay (NCI)
